system: Plasmodium falciparum NF54 stage IV/V gametocytes; assay: % inhibition of gametocyte viability (ATP bioluminescence); higher = more inhibition; conditions: 5 µM; 24 h
Measured property: % inhibition of gametocyte viability

The following compounds have reported results that may help.
INSERT INTO results (compound, reported_value) VALUES
  ('Cc1cc(-c2ccccc2)c(C(=O)C(=O)Nc2ccc(N3CCN(c4ncc(F)cn4)CC3)cc2)n1C', '5.39%'),
  ('COc1cc2c(O)c3c(c(-c4ccc5c(c4)OCO5)c2cc1OC)C(=O)OC3', '< 0%'),
  ('O=C(Nc1[nH]c(=O)ncc1F)c1ccccc1', '< 0%'),
  ('Cn1cncc1[C@@](N)(c1ccc(Cl)cc1)c1ccc2c(c1)c(-c1cccc(Cl)c1)cc(=O)n2C', '16.3%'),
  ('N#Cc1cc([N+](=O)[O-])ccc1Oc1ccccc1Cl', '< 0%'),
  ('O=[N+]([O-])c1cn(Cc2nc(O)nc(O)c2Br)cn1', '< 0%');

Prompt: Please look up its % inhibition of gametocyte viability: COc1ccc(NC(=O)CC2Sc3ncnn3C2=O)cc1 (stereo not drawn)
Response: 16.9%

Prompt: Give its % inhibition of gametocyte viability value. Item: O=C(O)c1cc(-c2ccc(Br)cc2)nc2ccc(Cl)cc12
Response: < 0%

Prompt: Looking for the measured % inhibition of gametocyte viability of CCCCN1C[C@H](O)[C@@H](O)[C@H](O)[C@H]1CO , can you help?
Response: < 0%
